# System: Aspergillus fumigatus
# method: Antifungal activity against Aspergillus fumigatus 231 after 48 hrs by microdilution method
# Format: functional
# condition.details: Aspergillus fumigatus, 231, 48 h
measured.endpoint: MIC80

Record summary for `COC(=O)/C=C1\C=C(c2ccc(Br)cc2)C(=O)O1` : reported MIC80 = > 125 µM

The compound listed as `O=C1O/C(=C\COC(=O)c2ccccc2)C=C1c1ccc(Br)cc1` shows MIC80 equal to > 500 µM

Entry under test: `O=C1O/C(=C\c2ccccc2)C=C1c1ccc(Br)cc1` . Its MIC80 was > 125 µM

The reported MIC80 of the compound `O=C1O/C(=C\CCCO)C=C1c1ccc(Br)cc1` was > 500 µM

The reported measurements were obtained from ChEMBL document CHEMBL1157589.
